Just for reference, PubChem BioAssay (NCI) is where these values come from.

# Tested on: OVCAR-3 ovarian
# protocol: NCI tumour cell line growth inhibition, 48 h
Answer each item with its documented TGI.

1) N#C/C(=C/N1C(=O)/C(=C/c2ccc([N+](=O)[O-])cc2)SC1=S)c1nc2ccccc2s1 : 15.9 µM
2) CCCCCCCCCCCCCC(=S)N/C=C/OC : 56.1 µM
3) C/C(=C1/N=C(c2cc([N+](=O)[O-])ccc2Cl)N(c2ccc(Br)cc2)C1=O)c1cc2ccccc2oc1=O : > 100 µM
4) COc1cc2c3c(c1OC)-c1ccccc1C(C(O)c1ccccc1)C3N(C)CC2 (stereo unspecified) : > 100 µM

Give TGI for each of the items listed below.
1. CC(C)(C)c1cc(COc2c3sc(=S)sc3c(OCc3cc(C(C)(C)C)cc(C(C)(C)C)c3)c3sc(=S)sc23)cc(C(C)(C)C)c1
2. COc1ccc2nc3n(c2c1)C(c1c(F)cccc1Cl)SC3 (stereo unspecified)
3. COc1cccc(-n2ncc3c(N/N=C/c4cccc(F)c4)ncnc32)c1

1. > 100 µM
2. > 100 µM
3. 10.1 µM

Consider the following items and state reported TGI for each.
1. c1ccc(-c2nc([P+](c3ccccc3)(c3ccccc3)c3ccccc3)c(N3CCOCC3)o2)cc1
2. CCO/C(O)=C(/C(=N)N1CCOCC1)C(=O)Nc1cccc(Cl)c1

1. 4.28 µM
2. > 100 µM

List the reported TGI of each compound below.
1. N=C(N)CCNC(=O)C1CCC(N)=N1 (stereo unspecified)
2. C=C[C@]1(C)C[C@@H](OC(=O)CO)[C@@]2(C)[C@H](C)CC[C@]3(CCC(=O)[C@H]32)[C@@H](C)[C@@H]1O
3. C=Cc1ccccc1C1C(C(=O)OCC)=C(C)N=C2OC(C(=O)OC)C(=O)N21 (stereo unspecified)
4. O=C1CCN(CCC(F)(F)C(F)(F)C(F)(F)C(F)(F)C(F)(F)C(F)(F)F)C(=S)N1CCC(F)(F)C(F)(F)C(F)(F)C(F)(F)C(F)(F)C(F)(F)F
5. COc1ccc(N2CCOCC2)cc1
6. CCCCNC(=O)NNC(=O)c1cc(/C=C/c2cccc([N+](=O)[O-])c2)ncn1

> 41.9 µM
> 100 µM
> 100 µM
> 100 µM
> 100 µM
> 100 µM

Identify measured TGI associated with `CCOP(=O)(OCC)/C(C#N)=C/c1nccn1C`
> 100 µM
